TARGET_OR_TEST_SYSTEM: Gβ1γ2 Tyr145Ala (Rattus norvegicus, UniProt P54311, Y145A)
Construct: made in house; host or cells: Sf9 insect cells (baculovirus)
ASSAY_TEXT: Phage ELISA, b-βγ mutant Tyr145Ala
Assay type: binding
EXPERIMENTAL_PARAMETERS: alanine-substituted Tyr145, N-Terminal Interface; mean ± SD
Excerpt: Wild-type Gβ1 and Gβ1 mutants were made in the baculovirus vector PDW464 which encodes a biotinylation site at a lysine upstream of the amino terminus of Gβ1 (Goubaeva, et al. (2003) supra). Mutants were generated by overlap extension PCR using standard protocols. The wild-type and mutant Gβ1 constructs consisted of a 20 amino acid biotin acceptor peptide (BAP) sequence fused in-frame with the amino-terminus of rat Gβ1 subunit. […]
Reported % of Wild-Type Signal, Tyr145 values are given for each entry in this list.
Write the value in % as a bare number.

BIOSEQUENCE: SCGHGLKVQSTIGACA [3C]
% of Wild-Type Signal, Tyr145 / %: 2.7

# input Query for Gβ1γ2 Tyr145Ala (Rattus norvegicus, UniProt P54311, Y145A): what % of Wild-Type Signal, Tyr145 does the record show for LCSKAYLLLGQTC [2F] ?
# output 0.1

# input Query for Gβ1γ2 Tyr145Ala (Rattus norvegicus, UniProt P54311, Y145A): what % of Wild-Type Signal, Tyr145 does the record show for SCEKRLGVRSCT [C5] ?
# output 16.7

# input Query for Gβ1γ2 Tyr145Ala (Rattus norvegicus, UniProt P54311, Y145A): what % of Wild-Type Signal, Tyr145 does the record show for WCPPKLEQWYDGCA [C2] ?
# output 4.5

# input Query for Gβ1γ2 Tyr145Ala (Rattus norvegicus, UniProt P54311, Y145A): what % of Wild-Type Signal, Tyr145 does the record show for WCPPKAMTQLGIKAC [C14] ?
# output 1.9

# input Query for Gβ1γ2 Tyr145Ala (Rattus norvegicus, UniProt P54311, Y145A): what % of Wild-Type Signal, Tyr145 does the record show for SCEKRYGIEFCT [C4] ?
# output 4.4

# input Query for Gβ1γ2 Tyr145Ala (Rattus norvegicus, UniProt P54311, Y145A): what % of Wild-Type Signal, Tyr145 does the record show for SIGKALFILGYPDYD [3.14] ?
# output 0.8

# input Query for Gβ1γ2 Tyr145Ala (Rattus norvegicus, UniProt P54311, Y145A): what % of Wild-Type Signal, Tyr145 does the record show for SCKRTKAQILLAPCT [C1] ?
# output 88.0

* * *

TARGET_OR_TEST_SYSTEM: Gβγ (protein interaction site of Gβ) (Rattus norvegicus)
Construct: made in house; host or cells: Sf9 insect cells (baculovirus), co-expressed with BirA and (His)6-Gαi1
ASSAY_TEXT: Phage ELISA: small molecules competing with SIGK-phage binding to immobilized biotinylated Gβγ
PROPERTY_MEASURED: pIC50
Remember the convention: pIC50 equals -log10 of concentration in molar.

# input Any idea what pIC50 was measured for O=C(O)C1CCCCC1c1c2ccc(=O)c(O)c-2oc2c(O)c(O)ccc12 (stereo not shown) ?
# output 7.00

* * *

TARGET_OR_TEST_SYSTEM: Gβ1γ2 Asn230Ala (Rattus norvegicus, UniProt P54311, N230A)
Construct: made in house; host or cells: Sf9 insect cells (baculovirus)
ASSAY_TEXT: Phage ELISA, b-βγ mutant Asn230Ala
Assay type: binding
EXPERIMENTAL_PARAMETERS: alanine-substituted Asn230, N-Terminal Interface; mean ± SD
PROPERTY_MEASURED: % of Wild-Type Signal, Asn230 (%)
Write the value in % as a bare number.

BIOSEQUENCE: SCEKRYGIEFCT [C4]
EXPERIMENTAL_RESULT: 11.5
//
BIOSEQUENCE: LCSKAYLLLGQTC [2F]
EXPERIMENTAL_RESULT: 27.6

Let us move to another entry and its % of Wild-Type Signal, Asn230.
# input Any idea what % of Wild-Type Signal, Asn230 was measured for SIGKALFILGYPDYD [3.14] ?
# output 22.4
